Attribute: pKd
# experimental-system: feline FcRn (FCN-F82W3, Acrobiosystems) (feline)
# protocol-details: SPR Carterra, IgG coupled, pH 6.0
# pKd is unitless: minus log10 of the molar concentration; print number only

Solved cases (3 shown):
# binder, data-value
records = [
    ("anti-NGF feline IgG1a, Fc variant R301L (antibody, part only; not given: anti-NGF variable domains, not shown: another chain or arm of the molecule; small tags and cut ends) Fc: PPEMLGGPSIFIFPPKPKDTLSISRTPEVTCLVVDLGPDDSDVQITWFVDNTQVYTAKTSPREEQFNSTYLVVSVLPILHQDWLKGKEFKCKVNSKSLPSPIERTISKAKGQPHEPQVYVLPPAQEELSRNKVSVTCLIKSFHPPDIAVEWEITGQPEPENNYRTTPPQLDSDGTYFVYSKLSVDRSHWQRGNTYTCSVSHEALHSHHTQKSLTQSPGK", 7.02),
    ("anti-NGF feline IgG1a, Fc variant S428L, E380T, S434R (antibody, part only; not given: anti-NGF variable domains, not shown: another chain or arm of the molecule; small tags and cut ends) Fc: PPEMLGGPSIFIFPPKPKDTLSISRTPEVTCLVVDLGPDDSDVQITWFVDNTQVYTAKTSPREEQFNSTYRVVSVLPILHQDWLKGKEFKCKVNSKSLPSPIERTISKAKGQPHEPQVYVLPPAQEELSRNKVSVTCLIKSFHPPDIAVTWEITGQPEPENNYRTTPPQLDSDGTYFVYSKLSVDRSHWQRGNTYTCSVLHEALHRHHTQKSLTQSPGK", 8.42),
    ("anti-NGF feline IgG1a, Fc variant S428H (antibody, part only; not given: anti-NGF variable domains, light chain, not shown: another chain or arm of the molecule; small tags and cut ends) Fc: PPEMLGGPSIFIFPPKPKDTLSISRTPEVTCLVVDLGPDDSDVQITWFVDNTQVYTAKTSPREEQFNSTYRVVSVLPILHQDWLKGKEFKCKVNSKSLPSPIERTISKAKGQPHEPQVYVLPPAQEELSRNKVSVTCLIKSFHPPDIAVEWEITGQPEPENNYRTTPPQLDSDGTYFVYSKLSVDRSHWQRGNTYTCSVHHEALHSHHTQKSLTQSPGK", 6.80),
]

Challenge: Using the record for anti-NGF feline IgG1a, Fc variant S434F (antibody, part only; not given: anti-NGF variable domains, light chain, not shown: another chain or arm of the molecule; small tags and cut ends) Fc: PPEMLGGPSIFIFPPKPKDTLSISRTPEVTCLVVDLGPDDSDVQITWFVDNTQVYTAKTSPREEQFNSTYRVVSVLPILHQDWLKGKEFKCKVNSKSLPSPIERTISKAKGQPHEPQVYVLPPAQEELSRNKVSVTCLIKSFHPPDIAVEWEITGQPEPENNYRTTPPQLDSDGTYFVYSKLSVDRSHWQRGNTYTCSVSHEALHFHHTQKSLTQSPGK , state its measured pKd.
Response given: 8.38

Challenge: Using the record for anti-NGF feline IgG1a, Fc variant S290V, R334D (antibody, part only; not given: anti-NGF variable domains, light chain, not shown: another chain or arm of the molecule; small tags and cut ends) Fc: PPEMLGGPSIFIFPPKPKDTLSISRTPEVTCLVVDLGPDDSDVQITWFVDNTQVYTAKTVPREEQFNSTYRVVSVLPILHQDWLKGKEFKCKVNSKSLPSPIEDTISKAKGQPHEPQVYVLPPAQEELSRNKVSVTCLIKSFHPPDIAVEWEITGQPEPENNYRTTPPQLDSDGTYFVYSKLSVDRSHWQRGNTYTCSVSHEALHSHHTQKSLTQSPGK , state its measured pKd.
Response given: 7.97
